Where these numbers come from: PubChem BioAssay AID1916

biological target: ATP-sensitive inward rectifier potassium channel 1 (Homo sapiens); assay: ROMK (Kir1.1) channel inhibitors among analogs, SAR follow-up, Tet-inducible ROMK cells, thallium flux, FluoZin2 (AID 1916); conditions: thallium flux FluoZin2 fluorescence
Activity calls are given as the source filed them. The rule behind the calls is not given here.
Classes used: active, inactive

[[record]]
item_smiles = "N#Cc1cccc(CN2CCOCCOCCN(Cc3cccc(C#N)c3)CCOCC2)c1"
experimental_system = "ATP-sensitive inward rectifier potassium channel 1 (Homo sapiens)"
class_assignment = "active"

[[record]]
item_smiles = "Cc1ccsc1CN1CCOCCOCCN(Cc2sccc2C)CCOCC1"
experimental_system = "ATP-sensitive inward rectifier potassium channel 1 (Homo sapiens)"
class_assignment = "active"

[[record]]
item_smiles = "Oc1ccccc1CN1CCOCCOCCN(Cc2ccccc2O)CCOCC1"
experimental_system = "ATP-sensitive inward rectifier potassium channel 1 (Homo sapiens)"
class_assignment = "inactive"

[[record]]
item_smiles = "FC(F)(F)c1cccc(CN2CCOCCOCCN(Cc3cccc(C(F)(F)F)c3)CCOCC2)c1"
experimental_system = "ATP-sensitive inward rectifier potassium channel 1 (Homo sapiens)"
class_assignment = "active"

[[record]]
item_smiles = "COc1cccc(CN2CCOCCOCCN(Cc3cccc(OC)c3)CCOCC2)c1"
experimental_system = "ATP-sensitive inward rectifier potassium channel 1 (Homo sapiens)"
class_assignment = "active"

[[record]]
item_smiles = "COC(=O)c1ccc(CN2CCOCCOCCN(Cc3ccc(C(=O)OC)cc3)CCOCC2)cc1"
experimental_system = "ATP-sensitive inward rectifier potassium channel 1 (Homo sapiens)"
class_assignment = "active"

[[record]]
item_smiles = "Cc1ccccc1CN1CCOCCOCCN(Cc2ccccc2C)CCOCC1"
experimental_system = "ATP-sensitive inward rectifier potassium channel 1 (Homo sapiens)"
class_assignment = "active"

[[record]]
item_smiles = "FC(F)(F)c1cc(CN2CCOCCOCCN(Cc3cc(C(F)(F)F)cc(C(F)(F)F)c3)CCOCC2)cc(C(F)(F)F)c1"
experimental_system = "ATP-sensitive inward rectifier potassium channel 1 (Homo sapiens)"
class_assignment = "active"

[[record]]
item_smiles = "COc1ccc(CN2CCOCCOCCN(Cc3ccc(OC)cc3)CCOCC2)cc1"
experimental_system = "ATP-sensitive inward rectifier potassium channel 1 (Homo sapiens)"
class_assignment = "inactive"

[[record]]
item_smiles = "CC(C)c1ccc(CN2CCOCCOCCN(Cc3ccc(C(C)C)cc3)CCOCC2)cc1"
experimental_system = "ATP-sensitive inward rectifier potassium channel 1 (Homo sapiens)"
class_assignment = "inactive"

[[record]]
item_smiles = "N#Cc1ccccc1CN1CCOCCOCCN(Cc2ccccc2C#N)CCOCC1"
experimental_system = "ATP-sensitive inward rectifier potassium channel 1 (Homo sapiens)"
class_assignment = "active"

[[record]]
item_smiles = "COc1cc(CN2CCOCCOCCN(Cc3cc(OC)cc(OC)c3)CCOCC2)cc(OC)c1"
experimental_system = "ATP-sensitive inward rectifier potassium channel 1 (Homo sapiens)"
class_assignment = "active"

[[record]]
item_smiles = "CN(C)c1ccc(CN2CCOCCOCCN(Cc3ccc(N(C)C)cc3)CCOCC2)cc1"
experimental_system = "ATP-sensitive inward rectifier potassium channel 1 (Homo sapiens)"
class_assignment = "inactive"

[[record]]
item_smiles = "O=[N+]([O-])c1ccccc1CN1CCOCCOCCN(Cc2ccccc2[N+](=O)[O-])CCOCC1"
experimental_system = "ATP-sensitive inward rectifier potassium channel 1 (Homo sapiens)"
class_assignment = "active"

[[record]]
item_smiles = "O=[N+]([O-])c1ccc(CN2CCOCCOCCN(Cc3ccc([N+](=O)[O-])cc3)CCOCC2)cc1"
experimental_system = "ATP-sensitive inward rectifier potassium channel 1 (Homo sapiens)"
class_assignment = "active"

[[record]]
item_smiles = "COc1ccccc1CN1CCOCCOCCN(Cc2ccccc2OC)CCOCC1"
experimental_system = "ATP-sensitive inward rectifier potassium channel 1 (Homo sapiens)"
class_assignment = "inactive"

[[record]]
item_smiles = "Clc1ccc(CN2CCOCCOCCN(Cc3ccc(Cl)cc3)CCOCC2)cc1"
experimental_system = "ATP-sensitive inward rectifier potassium channel 1 (Homo sapiens)"
class_assignment = "inactive"

